Ref: PubChem BioAssay (NCATS)

ASSAY_METHOD_TEXT: Viability qHTS for spleen associated tyrosine kinase inhibitor (SYKi) naive MV4-11 cells (AID 1963823); further: nearly all actives have a fitted effect of over 40% in size; further: potency means the concentration at half of the fitted maximal effect
SETTINGS: MV4-11 AML viability, CellTiter-Glo luminescence, 72 h; series mostly up to 45 µM
Inconclusive results are not listed. Calls of active or inactive are those of the source. The call rests on the fitted dose curve; in most records, active means well fitted cell-killing curve with a large enough effect; inconclusive means small, poorly fitted or top-dose-only effect, or effect the other way; inactive means no such curve, though single readings can be large or run the other way.
READOUT_LABEL: Potency

- C[n+]1ccc(-c2c3nc(c(-c4cc[n+](C)cc4)c4ccc([nH]4)c(-c4cc[n+](C)cc4)c4nc(c(-c5cc[n+](C)cc5)c5ccc2[nH]5)C=C4)C=C3)cc1: inactive
- CC(=O)c1c(O)cc(O[C@@H]2O[C@H](CO)[C@@H](O)[C@H](O)[C@H]2O)cc1O: inactive
- CCCCc1ncc(/C=C(\Cc2cccs2)C(=O)O)n1Cc1ccc(C(=O)O)cc1: inactive
- Cn1cc(C2=C(c3c4n(c5ccccc35)CCC(CN)C4)C(=O)NC2=O)c2ccccc21 (centres undefined): 2.15 µM (active)

====

ASSAY_METHOD_TEXT: Quantitative highthroughput screen to assess conditional lethalithy of P12 Ichikawa cells grown in Human Plasma-Like Medium with dialyzed fetal bovine serum (HPLM+ds) (AID 1963879); further: nearly all actives have a fitted effect of over 35% in size
SETTINGS: ATP luminescence, 48 h; viability; series mostly up to 45.8 µM
Inconclusive results are not listed. The source made the active and inactive calls. Calls follow the shape of the dose curve; as a rule, active = well fitted cell-killing curve with a large enough effect; inconclusive = small, poorly fitted or top-dose-only effect; inactive = flat fitted curve, though single readings scatter.
Just give me one of these, please: true for active, false for inactive

Please review the following examples before continuing.
* CCC=CC[C@H]1C(=O)CC[C@@H]1CC(=O)OC | false
* CN(C)CCOc1cc(-c2cn[nH]c2)ccc1NC(=O)C1COc2ccccc2O1 (centres undefined) | false
* OC[C@H]1O[C@@H](n2cnc3c2NC=NC[C@@H]3O)C[C@H]1O | false
* O=C(NC1CCOCC1)c1ccc(-c2cc(-c3cn[nH]c3-c3ccccn3)ccn2)cc1 | false
* CN[C@@H]1C[C@H]2O[C@@](C)([C@H]1OC)n1c3ccccc3c3c4c(c5c6ccccc6n2c5c31)C(=O)N[C@H]4O | true

# input So what was the verdict on `Nc1nc2c(c(=O)[nH]1)N(C=O)[C@H](CNc1ccc(C(=O)N[C@@H](CCC(=O)O)C(=O)O)cc1)CN2` in this test?
# output true

# input So what was the verdict on `N[C@@H](C(=O)N[C@@H]1C(=O)N2C(C(=O)O)=C(Cl)CS[C@H]12)c1ccccc1` in this test?
# output false

# input So what was the verdict on CC(NCCc1ccc(O)cc1)C(O)c1ccc(O)cc1 (centres undefined) in this test?
# output false

# input So what was the verdict on `CC[C@H](NC(=O)[C@H](C)NC)C(=O)N1C[C@@H](O)C[C@H]1Cc1c(-c2[nH]c3cc(F)ccc3c2C[C@H]2C[C@H](O)CN2C(=O)[C@H](CC)NC(=O)[C@H](C)NC)[nH]c2cc(F)ccc12` in this test?
# output true

====

TARGET_UNDER_TEST: Cytochrome P450 3A7 (Homo sapiens) (UniProt P24462)
Sequence (P24462 whole entry, looked up): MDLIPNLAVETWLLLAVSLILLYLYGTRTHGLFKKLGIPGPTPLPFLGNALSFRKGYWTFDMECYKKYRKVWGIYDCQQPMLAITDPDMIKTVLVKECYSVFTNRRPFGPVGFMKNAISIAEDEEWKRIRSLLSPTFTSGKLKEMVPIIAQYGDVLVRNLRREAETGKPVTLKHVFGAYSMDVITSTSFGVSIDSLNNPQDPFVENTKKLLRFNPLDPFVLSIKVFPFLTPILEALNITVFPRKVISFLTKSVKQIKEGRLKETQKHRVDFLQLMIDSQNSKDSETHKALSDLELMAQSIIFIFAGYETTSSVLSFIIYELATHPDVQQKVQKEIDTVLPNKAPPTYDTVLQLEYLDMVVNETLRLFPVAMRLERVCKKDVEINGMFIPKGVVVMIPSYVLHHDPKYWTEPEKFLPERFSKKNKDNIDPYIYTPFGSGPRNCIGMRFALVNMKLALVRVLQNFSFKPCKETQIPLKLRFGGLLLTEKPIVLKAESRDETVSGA
ASSAY_METHOD_TEXT: Cytochrome P450 family 3 subfamily A member 7 (CYP3A7) small molecule antagonists: luciferase biochemical qHTS assay (AID 1963596); further: nearly all actives have a fitted effect of over 40% in size
SETTINGS: P450-Glo CYP3A7 enzyme luminescence, 1 h; series mostly up to 57.4 µM
Records with an inconclusive call do not appear. The source made the active and inactive calls. Calls follow the shape of the dose curve; as a rule, active = well fitted inhibition curve with a large enough effect; inconclusive = small, poorly fitted or top-dose-only effect; inactive = no such curve, though single readings can be large or run the other way.
Just give me one of these, please: TRUE (active), FALSE (inactive)

Please review the following examples before continuing.
- CN1N=C(C(N)=O)CCC1=O: FALSE
- NS(=O)(=O)c1ccc(NC(=O)Nc2ccc(F)cc2)cc1: FALSE
- Cc1cc(N)c2cc(NC(=O)Nc3ccc4nc(C)cc(N)c4c3)ccc2n1: FALSE
- CCNCc1nc2c(N)nc3ccccc3c2n1CC(C)(C)O: FALSE
- CCCCC(O)/C=C(C)/C=C/C=C/C(=O)N1CCCC1=O (centres undefined): FALSE

# input So what was the verdict on `O=c1[nH]c(=O)n([C@H]2O[C@H](CO)[C@@H](O)[C@@H]2O)cc1/C=C\Br` in this test?
# output FALSE

# input So what was the verdict on `O=[N+]([O-])c1ccc(Oc2ccc(N=C=S)cc2)cc1` in this test?
# output TRUE

# input So what was the verdict on `Nc1nc(=O)n([C@@H]2CS[C@H](CO)O2)cc1F` in this test?
# output FALSE

# input So what was the verdict on `CCCSc1ccc2nc(NC(=O)OC)[nH]c2c1` in this test?
# output FALSE
